Every entry's value here was drawn from patent US20220281976A1.

# subject of test: human CD33 (human, UniProt P20138 18-364)
# Sequence (P20138 18-364): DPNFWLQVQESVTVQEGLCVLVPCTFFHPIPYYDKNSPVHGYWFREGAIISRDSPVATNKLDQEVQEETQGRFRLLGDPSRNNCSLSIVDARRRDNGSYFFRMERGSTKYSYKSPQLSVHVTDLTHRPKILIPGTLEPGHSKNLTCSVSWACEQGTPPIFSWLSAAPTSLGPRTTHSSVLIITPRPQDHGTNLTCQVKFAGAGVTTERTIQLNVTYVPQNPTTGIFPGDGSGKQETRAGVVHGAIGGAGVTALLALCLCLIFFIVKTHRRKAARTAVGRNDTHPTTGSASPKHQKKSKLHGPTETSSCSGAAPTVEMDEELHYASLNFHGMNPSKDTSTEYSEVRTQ
# protocol: cell-based or functional assay
observable: Percent CD33 Surface Expression, Macrophage % CD33 (%)
Write it as a number; the unit % goes unstated.

C-19 (antibody, V domains shown, human IgG1) VH: QLQLQESGPGLVKPSETLSLTCTVSGGSISSSSYAWGWIRQPPGKGLEWIGSIYYSGSTYYNPSLKSRVTISVDTSKNQFSLKLSSVTAADTAVYYCARVGYTRPYGMDVWGQGTTVTVSS VL: DIQMTQSPSSVSASVGDRVTITCRASQGISSWLAWYQQKPGKAPKLLIYAASSLQSGVPSRFSGSGSGTDFTLTISSLQPEDFATYYCQQINAHPTFGGGTKVEIK: 58.7
C-28 (antibody, V domains shown, human IgG1) VH: EVQLVESGGGLVQPGGSLRLSCAASGFTFSSYWMSWVRQAPGKGLEWVANINQDGSEKYYVDSVKGRFTISRDNAKNSLYLQMNSLRAEDTAVYYCAREGRRTMNAFDIWGQGTMVTVSS VL: DIQMTQSPSSLSASVGDRVTITCRASQSISSYLNWYQQKPGKAPKLLIYGASSLQSGVPSRFSGSGSGTDFTLTISSLQPEDFATYYCQQGYDVPITFGGGTKVEIK: 40.2
C-73 (antibody, V domains shown, human IgG1) VH: QVQLVESGGGVVQPGRSLRLSCAASGFTFSSYGMHWVRQAPGKGLEWVAVIWYDGSNKYYADSVKGRFTISRDNSKNTLYLQMNSLRAEDTAVYYCARGTNAYGTPRDFDLWGRGTLVTVSS VL: DIQMTQSPSSLSASVGDRVTITCRASQSISSYLNWYQQKPGKAPKLLIYAASSLQSGVPSRFSGSGSGTDFTLTISSLQPEDFATYYCQQLSDTPITFGGGTKVEIK: 55.9

Asked: Name the reported Percent CD33 Surface Expression, Macrophage % CD33 value associated with the binder C-26 (antibody, V domains shown, human IgG1) VH: QLQLQESGPGLVKPSETLSLTCTVSGGSISSNSYYWGWIRQPPGKGLEWIGSIYYSGSTYYNPSLKSRVTISVDTSKNQFSLKLSSVTAADTAVYYCARSPVYYDSSGYFQYYGMDVWGQGTTVTVSS VL: EIVLTQSPATLSLSPGERATLSCRASQSVSSYLAWYQQKPGQAPRLLIYDASKRATGIPARFSGSGSGTDFTLTISSLEPEDFAVYYCQQSIVWPPFTFGGGTKVEIK
Given back: 45.1

Asked: Name the reported Percent CD33 Surface Expression, Macrophage % CD33 value associated with the binder C-41 (antibody, V domains shown, human IgG1) VH: QLQLQESGPGLVKPSETLSLTCTVSGGSISSSSYYWGWIRQPPGKGLEWIGSISYSGSTYYNPSLKSRVTISVDTSKNQFSLKLSSVTAADTAVYYCAREGGKGMDVWGQGTLVTVSS VL: EIVLTQSPGTLSLSPGERATLSCRASQSVSSSFLAWYQQKPGQAPRLLIYGASSRATGIPDRFSGSGSGTDFTLTISRLEPEDFAVYYCQQFGDLPTFGGGTKVEIK
Given back: 39.5
